- Tested on: SNB-19 CNS
- PROTOCOL SUMMARY: NCI-60 one-dose screen, 48 h (100 = growth as untreated, 0 = no growth, -100 = all killed)
- COND: 10 µM unless noted
Compounds without any hit were thinned out: in the full panel of roughly 83,000, 20% have a hit. Activity calls are given as the source filed them. How the source made its calls: active means growth percent below 10; inactive means the rest.
A collection of compounds and their measured growth

## Input # value lookup — system SNB-19 CNS, readout growth, item C/C(=C(/C)C1CC1CCN(C(=O)c1ccccn1)S(=O)(=O)c1ccc(C)cc1)C1CCCCC1 (stereo not drawn)
## Output 98.4% (inactive)

## Input Similarly, O=c1oc2ccc(-c3ccc(F)cc3F)cc2c(=O)n1-c1ccc(F)c(F)c1 ?
## Output 12.2% (inactive)

## Input And what about the compound COc1cc2c3c(n(CCCNC4CCCC4)c(=O)c2cc1OC)-c1cc2c(cc1C3=O)OCO2 ?
## Output 46.2% (inactive)

## Input Another: O=C1c2c(c3c4cc(O)ccc4oc3c3[nH]c4ccccc4c23)C(=O)N1O
## Output 16.4% (inactive)

## Input Can you check Cc1ccc(NC(=O)c2ccc(CN3CCN(C)CC3)c(C(F)(F)F)c2)cc1Oc1ccc(-c2[nH]nc3ncnc(N)c23)cc1 next?
## Output 99.2% (inactive)

## Input Do the same for C#C[C@]1(O)CC[C@H]2[C@@H]3CC=C4c5sc(Nc6nc(C)cc(OC)n6)nc5CC[C@]4(C)[C@H]3CC[C@@]21C please
## Output 55% (inactive)

## Input Another compound: CC1(C)CC[C@]2(C(=O)N3CCCN(CC#N)CC3)CC[C@]3(C)C(=CC[C@@H]4[C@@]5(C)CC[C@H](O)C(C)(C)[C@@H]5CC[C@]43C)[C@H]2C1
## Output 78.3% (inactive)

## Input Same question, COc1ccc(/C=C/C(=O)c2nnn(-c3ccc(Br)cc3)c2C)cc1OC this time
## Output 78.9% (inactive)

* * *

- Test system: A498 renal
- PROTOCOL SUMMARY: NCI-60 one-dose screen, 48 h (100 = growth as untreated, 0 = no growth, -100 = all killed)
- COND: 10 µM unless noted
About 83,000 compounds went through this panel and 20% of them were active in at least one assay; those are over-represented in the sample as a whole.
OUTCOME MEASURE: growth (%)
Provide only the numeric value, understood in %.

Cn1c(SC(C(=O)Nc2ccc(F)cc2)c2ccccc2)nc2ccccc2c1=O (stereo unspecified) :: 98.8
Oc1ccc(CSc2nnc(-c3ccc(Cl)cc3)o2)c2cccnc12 :: 75.5
COc1cc(/C=N/n2cnc3oc(-c4ccccc4)cc3c2=N)cc(CN2CCCC2)c1O :: 85.7
CC(C)(C)OC(=O)N1CCN(S(=O)(=O)/N=C2\NC(=O)NC2=C(Cl)Cl)CC1 :: 83.7
Nc1c(C(=O)c2ccccc2)sc2nc(-c3cnccn3)cc(-c3cccs3)c12 :: 106
Nc1ccc(-c2nnc(SCc3ccc(O)c4ncccc34)o2)cc1 :: -40.1

## Input Please give the measured growth for this compound: C=CCn1c(SCC(=O)Nc2ccc(OC)cc2)nnc1-c1ccc(Cl)cc1
## Output 98.2

## Input Further, for COc1cc2c3c(n(CCCNCC4CC4)c(=O)c2cc1OC)-c1cc2c(cc1C3=O)OCO2 ?
## Output 68.6

## Input Lookup O=C1c2c(c3c4cccnc4[nH]c3c3ccc4ccccc4c23)C(=O)N1CCN1CCOCC1
## Output 69
